Data origin, for the record: PubChem BioAssay (NCI)

system: RXF 393 renal; assay: NCI-60 one-dose screen, 48 h (100 = growth as untreated, 0 = no growth, -100 = all killed); conditions: 10 µM unless noted
This is part of a sample that, as a whole, favours compounds with a hit. Of some 83,000 tested, about 20% had one in any assay.
Recorded growth for the following compounds
endpoint: growth (%)

{"columns": ["compound", "quantitative_readout"],
 "data": [
  ["CCC(C)/C=C(C)/C=C/C(=O)c1c(O)c(-c2ccc(O)cc2)c[nH]c1=O (stereo not given)", 52.3],
  ["C=CCN1C(=O)C(CC)(CCC(C)C)C(=O)NC1=S (stereo not given)", 107],
  ["O=C(O)c1[nH]c(=O)[nH]c(=O)c1F", 103],
  ["O=C(/C=C/c1ccccc1)N[C@@H](CO)Cc1cnc[nH]1", 118],
  ["C/C(=C\\C(=O)O[C@H]1[C@@H]2[C@H](C)CC[C@H]2[C@]2(C)O[C@@]1(C1CCCCC1)C[C@H]2OC(=O)CO)c1ccccc1", -10.1],
  ["O=C(CCc1ccco1)NC1CCN(CC2(c3ccc(Cl)cc3)CCC2)CC1", 28.4],
  ["O=C(O)C1(Br)CC12c1ccccc1-c1ccccc12 (stereo not given)", 99.5],
  ["CC12CC[C@H](O)C=C1/C(=N/O)CC1C2CCC2(C)C1CC[C@@H]2O (stereo not given in full)", 104],
  ["COc1ccc(C(c2ccc(OC)cc2)C(Cl)(Cl)Cl)cc1", 73.4],
  ["C[C@@H]1O[C@@H](O[C@H]2CC[C@@]3(C)[C@H](CCC4[C@@H]3C(O)C[C@]3(C)[C@@H](c5ccc(=O)oc5)CC[C@]43O)C2)[C@H](O)[C@H](O)[C@H]1O (stereo not given in full)", -52.3],
  ["Cc1cc(NC(=O)/C=C/c2ccc([N+](=O)[O-])cc2)ccc1S(=O)(=O)F", 119],
  ["C/C(=N/OC(=O)N(C)C)c1cc(Cl)ccc1Cl", 102],
  ["O=S(=O)(Cl)c1ccccc1 (tested in a mixture with another compound)", 99.1],
  ["S=P(NC1CCCCC1)(N1CC1)N1CC1", 102],
  ["CC(=O)N1N=C(c2ccccc2)CC1c1sc(N(CCCl)CCCl)nc1Cl (stereo not given)", 97.5]
]}
